Biological target: Epac1-ΔDEP1 (Homo sapiens, UniProt O95398)
Sequence (O95398 191-923 limits assumed, stated change not applied): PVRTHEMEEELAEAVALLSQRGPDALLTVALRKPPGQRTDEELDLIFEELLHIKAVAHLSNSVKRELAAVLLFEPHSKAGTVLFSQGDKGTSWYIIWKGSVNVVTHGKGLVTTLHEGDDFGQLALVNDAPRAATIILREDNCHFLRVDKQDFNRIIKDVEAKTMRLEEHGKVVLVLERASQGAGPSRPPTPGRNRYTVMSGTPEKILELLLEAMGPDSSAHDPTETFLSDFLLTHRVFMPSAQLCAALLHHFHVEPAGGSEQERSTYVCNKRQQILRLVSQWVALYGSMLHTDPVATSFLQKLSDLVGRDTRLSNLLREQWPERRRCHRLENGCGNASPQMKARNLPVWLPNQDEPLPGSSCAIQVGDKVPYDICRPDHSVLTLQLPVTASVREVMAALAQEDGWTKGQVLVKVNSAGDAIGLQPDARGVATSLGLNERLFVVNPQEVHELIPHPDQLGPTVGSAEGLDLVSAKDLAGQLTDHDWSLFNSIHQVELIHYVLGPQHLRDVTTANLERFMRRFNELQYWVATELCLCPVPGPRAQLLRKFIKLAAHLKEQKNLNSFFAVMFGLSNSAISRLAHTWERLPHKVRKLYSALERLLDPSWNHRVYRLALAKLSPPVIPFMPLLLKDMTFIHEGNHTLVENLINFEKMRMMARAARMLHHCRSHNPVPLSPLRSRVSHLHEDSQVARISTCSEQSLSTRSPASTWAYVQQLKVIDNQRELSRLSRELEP
Experiment: In vitro GEF assay: Epac activity in the exchange reaction towards Rap (mantGDP-loaded Rap1b)
Format: biochemical
Details: in vitro, FIG. 4; read-out: Half-maximal activation of Epac1
MEASURE: EC50 (µM)

CHEM SMILES | MEASUREMENT TARGET | MEASURE | DATA VALUE
CO[C@@H]1[C@@H]2OP(=O)(O)OC[C@H]2O[C@H]1n1c(Sc2ccc(Cl)cc2)nc2c(N)ncnc21 | Epac1-ΔDEP1 (Homo sapiens, UniProt O95398) | EC50 | 2.2

----------
System: Ovcar3 cells
Assay: Adhesion assay of Ovcar3 cells to fibronectin
Assay type: cell-based
Conditions: Homo sapiens, OVCAR-3, FIG. 7A, read-out: EC50 of enhanced cell adhesion to fibronectin

CHEM SMILES | EC50
CO[C@@H]1[C@@H]2OP(=O)(O)OC[C@H]2O[C@H]1n1c(Sc2ccc(Cl)cc2)nc2c(N)ncnc21 | ~30 µM
